target: P-gp (ABCB1) (Homo sapiens); experiment: Substrate activity at P-gp (unknown origin) transfected in LLC-PK1 cells expressing human MDR1 gene assessed as efflux ratio of permeability across basolateral to apical membrane at 0.1 uM; assay type: ADME, cell-based
Sequence (P08183 whole entry): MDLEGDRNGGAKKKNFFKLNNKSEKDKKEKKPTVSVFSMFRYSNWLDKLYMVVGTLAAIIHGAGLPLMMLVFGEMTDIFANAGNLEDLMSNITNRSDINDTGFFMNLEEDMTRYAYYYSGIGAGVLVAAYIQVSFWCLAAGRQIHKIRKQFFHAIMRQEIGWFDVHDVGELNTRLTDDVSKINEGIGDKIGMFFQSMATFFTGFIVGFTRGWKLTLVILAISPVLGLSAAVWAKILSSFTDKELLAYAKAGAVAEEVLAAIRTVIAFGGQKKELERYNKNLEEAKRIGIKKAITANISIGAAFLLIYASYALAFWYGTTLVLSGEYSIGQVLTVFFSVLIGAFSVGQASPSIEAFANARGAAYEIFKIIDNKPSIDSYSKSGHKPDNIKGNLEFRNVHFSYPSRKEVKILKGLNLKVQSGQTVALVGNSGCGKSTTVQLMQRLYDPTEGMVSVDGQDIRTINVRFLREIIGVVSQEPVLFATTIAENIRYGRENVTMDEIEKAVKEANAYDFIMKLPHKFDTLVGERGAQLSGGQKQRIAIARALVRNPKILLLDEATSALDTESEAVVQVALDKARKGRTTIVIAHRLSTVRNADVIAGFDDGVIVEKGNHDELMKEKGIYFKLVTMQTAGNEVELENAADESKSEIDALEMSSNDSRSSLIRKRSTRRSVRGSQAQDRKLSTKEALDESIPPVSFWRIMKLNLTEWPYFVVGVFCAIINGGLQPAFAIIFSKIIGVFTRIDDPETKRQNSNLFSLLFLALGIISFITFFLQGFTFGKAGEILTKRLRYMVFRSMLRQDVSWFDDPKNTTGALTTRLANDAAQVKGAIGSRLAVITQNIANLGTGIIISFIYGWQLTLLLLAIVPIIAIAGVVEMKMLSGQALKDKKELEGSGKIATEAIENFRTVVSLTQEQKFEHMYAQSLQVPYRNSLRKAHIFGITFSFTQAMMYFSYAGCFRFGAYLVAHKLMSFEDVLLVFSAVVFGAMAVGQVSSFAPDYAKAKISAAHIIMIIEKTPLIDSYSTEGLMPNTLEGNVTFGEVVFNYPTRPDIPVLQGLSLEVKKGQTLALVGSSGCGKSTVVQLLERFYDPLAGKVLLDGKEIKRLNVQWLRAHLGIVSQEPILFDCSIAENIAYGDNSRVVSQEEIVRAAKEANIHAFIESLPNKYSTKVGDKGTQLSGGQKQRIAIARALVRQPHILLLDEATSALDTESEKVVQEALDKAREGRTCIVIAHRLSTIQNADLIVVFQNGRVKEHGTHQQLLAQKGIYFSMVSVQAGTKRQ
Catalogue of efflux ratio at 0.1 µM readings, one per entry.
value-kind: efflux ratio at 0.1 µM

>  <compound>
CC(C)O[C@H]1CC[C@H](C(=O)N2Cc3cc(F)cnc3Nc3ccc(N4CC5CCC4CO5)cc32)CC1 (some centres undefined)

>  <value-kind>
efflux ratio at 0.1 µM

>  <test-value>
2.9

$$$$
>  <compound>
CC(C)O[C@H]1CC[C@H](C(=O)N2Cc3cc(F)cnc3Nc3ccc(-c4cnn(C)c4)cc32)OC1

>  <value-kind>
efflux ratio at 0.1 µM

>  <test-value>
1.2

$$$$
>  <compound>
CC(C)O[C@H]1CC[C@H](C(=O)N2Cc3cccnc3Nc3cnc(C4COCCO4)cc32)CC1 (some centres undefined)

>  <value-kind>
efflux ratio at 0.1 µM

>  <test-value>
3.7

$$$$
>  <compound>
CC(C)O[C@H]1CC[C@H](C(=O)N2Cc3cccnc3Nc3ccc(N4CC5CCC4CO5)cc32)CC1 (some centres undefined)

>  <value-kind>
efflux ratio at 0.1 µM

>  <test-value>
3.6

$$$$

###

test: Volume of distribution in dog at 2 mg/kg, iv measured up to 24 hrs by LC-MS/MS analysis; assay type: ADME, organism-based, Canis lupus familiaris; conditions: in vivo
value-kind: Vd (L/kg)

>  <compound>
CC(C)O[C@H]1CC[C@H](C(=O)N2Cc3cccnc3Nc3cc(F)c(C4COCCO4)cc32)OC1 (stereo partly specified)

>  <test-value>
5.1

$$$$

###

test: Solubility of the compound at pH 7; type: physicochemical; settings: buffer

>  <compound>
CC(C)O[C@H]1CC[C@H](C(=O)N2Cc3cccnc3Nc3cc(F)c(C4COCCO4)cc32)OC1 (stereo partly specified)

>  <solubility>
123 µM

$$$$

###

assay: Permeability of the compound in pig LLC-PK1 cells expressing MDR1; assay type: ADME, cell-based, Sus scrofa; settings: read-out: permeability
value-kind: Papp (×10⁻⁶ cm/s)

>  <compound>
CC(C)O[C@H]1CC[C@H](C(=O)N2Cc3cccnc3Nc3cc(F)c(C4COCCO4)cc32)OC1 (stereo partly specified)

>  <test-value>
38.7

$$$$

###

assay: Half life in rat at 0.5 mg/kg, iv measured up to 24 hrs by LC-MS/MS analysis; assay type: ADME, organism-based; details: in vivo

>  <compound>
CC(C)O[C@H]1CC[C@H](C(=O)N2Cc3cccnc3Nc3cc(F)c(C4COCCO4)cc32)OC1 (stereo partly specified)

>  <half-life>
1.1 h

$$$$

###

test system: MOG-G-UVW; assay: Antiproliferative activity against human MOG-G-UVW cells assessed as inhibition of cell proliferation incubated for 72 hrs by cell titer-Glo assay; format: functional, cell-based
Listed here: items and their measured IC50.
value-kind: IC50 (nM)

>  <compound>
CC(C)O[C@H]1CC[C@H](C(=O)N2Cc3cccnc3Nc3ccc(N4CC5CCC4CO5)cc32)CC1 (some centres undefined)

>  <value-kind>
IC50

>  <test-value>
17.2

$$$$
>  <compound>
CC(C)O[C@H]1CC[C@H](C(=O)N2Cc3cccnc3Nc3ccc(N4CC5(CCCOC5)C4)cc32)CC1

>  <value-kind>
IC50

>  <test-value>
119

$$$$
>  <compound>
CC(C)O[C@H]1CC[C@H](C(=O)N2Cc3cccnc3Nc3ccc(N4C[C@H]5CC[C@@H]4CO5)cc32)OC1

>  <value-kind>
IC50

>  <test-value>
17.8

$$$$
>  <compound>
CC(C)O[C@H]1CC[C@H](C(=O)N2Cc3cc(Cl)cnc3Nc3ccc(N4CC5CCC4CO5)cc32)CC1 (some centres undefined)

>  <value-kind>
IC50

>  <test-value>
95.9

$$$$

###

Reported values of log10 of IC50 for individual entries
system: MOG-G-UVW; assay: Antiproliferative activity against human MOG-G-UVW cells assessed as inhibition of cell proliferation incubated for 72 hrs by cell titer-Glo assay; format: functional, cell-based
value-kind: log10 of IC50 (log10 of the value in nM)

>  <compound>
CC(C)O[C@H]1CC[C@H](C(=O)N2Cc3cc(F)cnc3Nc3ccc(N4CC5CCC4CO5)cc32)CC1 (stereo partly drawn)

>  <log10 of IC50>
1.26

$$$$
>  <compound>
Cc1cnc2c(c1)CN(C(=O)[C@H]1CC[C@H](OC(C)C)CC1)c1cc(N3CC4CCC3CO4)ccc1N2 (stereo partly drawn)

>  <log10 of IC50>
2.66

$$$$
>  <compound>
CC(C)O[C@H]1CC[C@H](C(=O)N2Cc3cccnc3Nc3cc(F)c(N4CC5CCC4CO5)cc32)CC1 (stereo partly drawn)

>  <log10 of IC50>
1.56

$$$$
>  <compound>
O=C(C1CCN(CC(F)(F)F)CC1)N1Cc2cc(F)cnc2Nc2ccc(N3C[C@@H]4C[C@H]3CO4)cc21

>  <log10 of IC50>
1.63

$$$$
>  <compound>
CC(C)O[C@H]1CC[C@H](C(=O)N2Cc3cccnc3Nc3cnn(CC4CCOCC4)c32)CC1

>  <log10 of IC50>
3.70

$$$$
>  <compound>
O=C(C1CCc2ccccc2CC1)N1Cc2cccnc2Nc2ccc(N3CCOCC3)cc21

>  <log10 of IC50>
1.63

$$$$
>  <compound>
COC1C[C@H]2CC[C@@H](C1)N2c1ccc2c(c1)N(C(=O)C1CCN(CC(F)(F)F)CC1)Cc1cccnc1N2 (stereo partly drawn)

>  <log10 of IC50>
1.79

$$$$

###

system: MOG-G-UVW; test: Antiproliferative activity against human MOG-G-UVW cells assessed as inhibition of cell proliferation incubated for 72 hrs by cell titer-Glo assay; format: functional, cell-based

>  <compound>
CC(C)O[C@H]1CC[C@H](C(=O)N2Cc3nccnc3Nc3ccc(C4CCOCC4)cc32)CC1

>  <IC50 [µM]>
0.146

$$$$
>  <compound>
CC(C)O[C@H]1CC[C@H](C(=O)N2Cc3cccnc3Nc3cnc(N4C[C@@H]5C[C@H]4CO5)cc32)CC1

>  <IC50 [µM]>
0.261

$$$$
>  <compound>
CC(C)O[C@H]1CC[C@H](C(=O)N2Cc3cc(F)cnc3Nc3ccc(-c4cnn(C)c4)cc32)OC1

>  <IC50 [µM]>
0.0183

$$$$
>  <compound>
CC(C)O[C@H]1CC[C@H](C(=O)N2Cc3cccnc3Nc3ccc(N4C[C@@H]5C[C@H]4CO5)cc32)CC1

>  <IC50 [µM]>
0.0606

$$$$
>  <compound>
CC(C)O[C@H]1CC[C@H](C(=O)N2Cc3cccnc3Nc3ccc(C4COCCO4)cc32)OC1 (stereo not given in full)

>  <IC50 [µM]>
0.0885

$$$$

###

experiment: Clearance in dog at 2 mg/kg, iv measured up to 24 hrs by LC-MS/MS analysis; type: ADME, organism-based, Canis lupus familiaris; conditions: in vivo
value-kind: clearance (mL/min/kg)

>  <compound>
CC(C)O[C@H]1CC[C@H](C(=O)N2Cc3cccnc3Nc3cc(F)c(C4COCCO4)cc32)OC1 (stereo partly specified)

>  <test-value>
26

$$$$

###

efflux ratio at 0.1 µM: recorded values
target: P-gp (ABCB1) (Homo sapiens); experiment: Substrate activity at P-gp (unknown origin) transfected in LLC-PK1 cells expressing human MDR1 gene assessed as efflux ratio of permeability across basolateral to apical membrane at 0.1 uM; assay type: ADME, cell-based
value-kind: efflux ratio at 0.1 µM

>  <compound>
CC(C)O[C@H]1CC[C@H](C(=O)N2Cc3cncnc3Nc3ccc(N4C[C@@H]5C[C@H]4CO5)cc32)CC1

>  <value-kind>
efflux ratio at 0.1 µM

>  <test-value>
8.1

$$$$
>  <compound>
CC(C)O[C@H]1CC[C@H](C(=O)N2c3cc(N4C[C@@H]5C[C@H]4CO5)ccc3Nc3ncccc3C2C)CC1 (stereo partly drawn)

>  <value-kind>
efflux ratio at 0.1 µM

>  <test-value>
3.4

$$$$
>  <compound>
CC(C)O[C@H]1CC[C@H](C(=O)N2Cc3cccnc3Nc3cnc(N4C[C@@H]5C[C@H]4CO5)cc32)CC1

>  <value-kind>
efflux ratio at 0.1 µM

>  <test-value>
6.6

$$$$
>  <compound>
CC(C)O[C@H]1CC[C@H](C(=O)N2Cc3cccnc3Nc3ccc(C4COCCO4)cc32)OC1 (stereo partly drawn)

>  <value-kind>
efflux ratio at 0.1 µM

>  <test-value>
1.1

$$$$
>  <compound>
CC(C)O[C@H]1CC[C@H](C(=O)N2Cc3cc(F)cnc3Nc3ccc(N4C[C@H]5CC[C@@H]4CO5)cc32)OC1

>  <value-kind>
efflux ratio at 0.1 µM

>  <test-value>
1.4

$$$$
>  <compound>
CC(C)O[C@H]1CC[C@H](C(=O)N2Cc3cccnc3Nc3cc(F)c(C4COCCO4)cc32)OC1 (stereo partly drawn)

>  <value-kind>
efflux ratio at 0.1 µM

>  <test-value>
1.2

$$$$
>  <compound>
CC(C)O[C@H]1CC[C@H](C(=O)N2Cc3cc(F)cnc3Nc3ccc(C4COCCO4)cc32)OC1 (stereo partly drawn)

>  <value-kind>
efflux ratio at 0.1 µM

>  <test-value>
0.9

$$$$
>  <compound>
CC(C)O[C@H]1CC[C@H](C(=O)N2Cc3cccnc3Nc3cc(F)c(N4CC5CCC4CO5)cc32)CC1 (stereo partly drawn)

>  <value-kind>
efflux ratio at 0.1 µM

>  <test-value>
2.5

$$$$
